System: AMPK-alpha1;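 further: KINOMEscan kinase panel screen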
Construct: gene PRKAA1
Conditions: concentration: 1 μM,replicates: in singlicate; n = 1
// %Inh lookup, one value per entry
Provide only the numeric value, understood in %.

[[record]]
compound = "Cc1cccc2c(-c3ccncc3)c(-c3ccc(F)cc3)nn12.Cl"
targetentity = "AMPK-alpha1"
u = "%"
readoutvalue = 17

[[record]]
compound = "O=C(Nc1cccc(C(F)(F)F)c1)c1cccc(Oc2ccc3nccn3n2)c1"
targetentity = "AMPK-alpha1"
u = "%"
readoutvalue = 8

[[record]]
compound = "C[C@@H](Oc1cc(-n2cnc3ccc(-c4ccncc4)cc32)sc1C(N)=O)c1ccccc1Cl"
targetentity = "AMPK-alpha1"
u = "%"
readoutvalue = 8


Exercise: Return value of %Inh for input Cn1ccc2ncnc(Oc3ccc(NC(=O)Nc4cccc(C(F)(F)F)c4)c(F)c3)c21 , no commentary.
Key: 0

Exercise: Return value of %Inh for input NC(=O)Nc1sc(-c2ccc(F)cc2)cc1C(N)=O , no commentary.
Key: 25

Exercise: Return value of %Inh for input CS(=O)c1ccc(-c2coc3ccc(-c4n[nH]c(=O)o4)cc23)cc1 (stereo not drawn) , no commentary.
Key: 100

Exercise: Return value of %Inh for input O=C(NOCC1CC1)c1cc(Br)c(F)c(F)c1Nc1ccc(I)cc1Cl , no commentary.
Key: 4

Exercise: Return value of %Inh for input Cc1ccc(CC(=O)N2CCc3cc(-c4cn(C)c5ncnc(N)c45)ccc32)cc1 , no commentary.
Key: 0

Exercise: Return value of %Inh for input CN1CCN(CCNc2nc3cc(Oc4ccc(NC(=O)Nc5cc(C(F)(F)F)ccc5F)cc4)ccc3[nH]2)CC1.Cl.Cl , no commentary.
Key: 9
